molecular target: human CD33 I47V (human, UniProt P20138 18-364); test: flow cytometry, mutant on cells, IgG
Sequence (P20138 18-364 I47V limits assumed): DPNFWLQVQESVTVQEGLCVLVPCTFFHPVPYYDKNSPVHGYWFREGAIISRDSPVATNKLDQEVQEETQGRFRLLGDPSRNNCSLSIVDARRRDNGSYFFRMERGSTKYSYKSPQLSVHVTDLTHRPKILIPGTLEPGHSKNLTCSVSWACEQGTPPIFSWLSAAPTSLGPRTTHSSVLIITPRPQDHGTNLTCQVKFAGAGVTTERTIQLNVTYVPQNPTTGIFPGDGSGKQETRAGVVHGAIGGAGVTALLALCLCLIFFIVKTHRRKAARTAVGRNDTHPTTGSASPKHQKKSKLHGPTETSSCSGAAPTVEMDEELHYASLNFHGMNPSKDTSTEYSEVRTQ
recorded_endpoint: Mean % WT Binding (% WT binding)
# output: bare number, implied unit % WT binding

Inquiry: Please look up its Mean % WT Binding: Refmab #1 (antibody, human IgG1, V domains shown, Tested in IgG format; human IgG1 (Absolute Antibody hP67.6, Cat. No. Ab00283-10.0); also called hP67.6) VH: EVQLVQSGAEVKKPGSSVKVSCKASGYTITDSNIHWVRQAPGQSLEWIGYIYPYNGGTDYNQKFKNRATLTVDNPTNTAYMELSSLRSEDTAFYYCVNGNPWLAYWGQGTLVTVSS VL: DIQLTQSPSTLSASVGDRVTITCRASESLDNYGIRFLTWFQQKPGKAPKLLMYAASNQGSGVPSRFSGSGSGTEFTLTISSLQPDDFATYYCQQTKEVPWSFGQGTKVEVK
Reply text: 112
